For each entry below, report its IC50 value.
target desc: norepinephrine (NE) uptake (Rattus norvegicus, UniProt Q63380)
Construct: Crude synaptosomal preparations were isolated after differential centrifugation; from tissue; host or cells: rat cerebral cortex, crude synaptosomes
Sequence (Q63380 1-617): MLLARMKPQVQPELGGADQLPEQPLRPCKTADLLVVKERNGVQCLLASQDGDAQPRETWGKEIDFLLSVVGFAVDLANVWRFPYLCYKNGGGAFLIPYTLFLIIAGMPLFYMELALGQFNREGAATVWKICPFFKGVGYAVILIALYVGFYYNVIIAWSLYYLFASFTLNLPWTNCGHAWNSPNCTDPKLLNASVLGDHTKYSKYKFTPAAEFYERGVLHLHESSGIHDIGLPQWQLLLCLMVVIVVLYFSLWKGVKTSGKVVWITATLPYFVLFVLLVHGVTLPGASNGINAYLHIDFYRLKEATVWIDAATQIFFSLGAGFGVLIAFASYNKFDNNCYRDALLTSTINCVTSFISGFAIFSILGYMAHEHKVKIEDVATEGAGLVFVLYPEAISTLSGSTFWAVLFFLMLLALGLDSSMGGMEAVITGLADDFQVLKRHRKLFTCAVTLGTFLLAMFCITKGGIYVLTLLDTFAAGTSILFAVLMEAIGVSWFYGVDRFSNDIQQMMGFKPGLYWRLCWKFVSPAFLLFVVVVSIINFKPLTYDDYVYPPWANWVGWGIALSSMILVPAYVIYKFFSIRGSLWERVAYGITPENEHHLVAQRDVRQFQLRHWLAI
method summary: Inhibition of synaptosomal uptake of 14C-l-norepinephrine in vitro
Type: biochemical, rats
measurement context: rat cerebral cortex synaptosomes, 100 nM ¹⁴C-NE, 37°C for 5 min; read-out: IC₅₀(nM) NE

Req: // returns reported IC50 for input CN(C)CCC(Oc1ccc(NS(C)(=O)=O)cc1)c1ccccc1 (centres unmarked)
Resp: > 1000 nM

Req: Subsequent entry: CSc1ccc(OC(CCN(C)C)c2ccccc2)cc1 (centres unmarked)
Resp: > 1000 nM

Req: Subsequent entry: CNCCC(Oc1ccc(SC(F)(F)F)cc1)c1ccccc1 (centres unmarked)
Resp: > 1000 nM

Req: Subsequent entry: CN(C)CCC(Oc1ccc(S(N)(=O)=O)cc1)c1ccccc1 (centres unmarked)
Resp: > 1000 nM

Req: Subsequent entry: CNCCC(Oc1ccc(SC)cc1)c1ccccc1 (centres unmarked)
Resp: 704 nM

----------
For each entry below, report its pIC50 value.
target desc: serotonin (5HT) uptake (Rattus norvegicus)
Construct: Crude synaptosomal preparations were isolated after differential centrifugation; from tissue; host or cells: rat cerebral cortex, crude synaptosomes
Sequence (P31652 whole entry): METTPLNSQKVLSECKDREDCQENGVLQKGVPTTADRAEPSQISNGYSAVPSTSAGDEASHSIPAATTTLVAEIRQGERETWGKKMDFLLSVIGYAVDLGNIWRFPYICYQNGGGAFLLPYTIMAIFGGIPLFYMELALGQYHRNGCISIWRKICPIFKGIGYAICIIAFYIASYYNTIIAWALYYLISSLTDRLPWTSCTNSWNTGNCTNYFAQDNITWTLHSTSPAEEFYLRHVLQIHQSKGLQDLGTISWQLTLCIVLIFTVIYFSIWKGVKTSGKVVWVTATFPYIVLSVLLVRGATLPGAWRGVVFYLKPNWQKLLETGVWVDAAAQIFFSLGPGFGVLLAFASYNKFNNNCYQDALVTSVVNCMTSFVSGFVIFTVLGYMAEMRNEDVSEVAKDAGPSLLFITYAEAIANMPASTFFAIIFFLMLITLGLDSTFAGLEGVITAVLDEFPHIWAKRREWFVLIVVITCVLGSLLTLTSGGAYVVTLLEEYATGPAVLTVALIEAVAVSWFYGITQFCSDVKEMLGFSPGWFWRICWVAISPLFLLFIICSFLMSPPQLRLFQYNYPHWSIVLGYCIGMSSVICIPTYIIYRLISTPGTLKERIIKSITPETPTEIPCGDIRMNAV
method summary: Inhibition of synaptosomal uptake of 3H-serotonin in vitro
Type: biochemical, rats
Keep it numeric: pIC50 is minus log10 of the concentration in mol/L.

Req: // returns reported pIC50 for input CSc1ccc(OC(CCN(C)C)c2ccccc2)cc1 (stereo not shown)
Resp: 6.80

Req: Subsequent entry: CNCCC(Oc1ccc(SC)cc1)c1ccccc1 (stereo not shown)
Resp: 7.32

----------
target desc: serotonin (5HT) uptake (Rattus norvegicus)
Construct: Crude synaptosomal preparations were isolated after differential centrifugation; from tissue; host or cells: rat cerebral cortex, crude synaptosomes
method summary: Inhibition of synaptosomal uptake of 3H-serotonin in vitro
Format: biochemical, rats
measurement context: rat cerebral cortex synaptosomes, 50 nM ³H-5HT, 37°C for 5 min; read-out: IC₅₀(nM) 5HT
measured endpoint: IC50

Req: Value wanted: IC50 (serotonin (5HT) uptake (Rattus norvegicus)) of entry CNCCC(Oc1ccc(SC(F)(F)F)cc1)c1ccccc1 (stereo not shown)
Resp: > 1000 nM
